- Target Desc: MBP-FoxP3dN (Mus musculus, UniProt Q99JB6 188-423)
- Sequence: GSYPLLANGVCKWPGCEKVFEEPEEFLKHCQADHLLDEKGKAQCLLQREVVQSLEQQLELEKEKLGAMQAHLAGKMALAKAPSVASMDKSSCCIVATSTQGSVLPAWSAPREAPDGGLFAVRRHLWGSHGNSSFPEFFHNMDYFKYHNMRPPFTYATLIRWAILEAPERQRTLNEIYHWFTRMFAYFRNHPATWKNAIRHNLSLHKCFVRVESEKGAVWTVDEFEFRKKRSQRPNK
- Assay Name: PD-seq (MBP pull-down with sequencing); 20 mM Tris-HCl pH 7.5, 100 mM NaCl, 1.5 mM MgCl2, 0.4 uM protein, 0.1 uM dsDNA library, 30 min, room temperature, amylose pull-down; high values mean tight binding
- Condition Set: protein: recombinant; tags: His6-MBP; chain copies: 2; dsDNA, one strand shown
Whole data set: some 16,000 sequences, median “rpm ratio (pull-down/input)” near 0.5, cut for the highest 2% near 5.5. The full list was thinned out, with the highest values kept by preference.
Examples of sequences with documented binding signal follow.

Note to self: binding signal recorded for `GATGATTGTTCTCCCAGCTGATGAATTCCGTCAATCGAGTAAACAAATTTTCCTAATCTTTCTGTTCAAGCGCCATCTAC` was 0.393 RPM ratio (pull-down/input)

* * *

- Target Desc: MBP-FoxP3dN (Mus musculus, UniProt Q99JB6 188-423)
- Sequence: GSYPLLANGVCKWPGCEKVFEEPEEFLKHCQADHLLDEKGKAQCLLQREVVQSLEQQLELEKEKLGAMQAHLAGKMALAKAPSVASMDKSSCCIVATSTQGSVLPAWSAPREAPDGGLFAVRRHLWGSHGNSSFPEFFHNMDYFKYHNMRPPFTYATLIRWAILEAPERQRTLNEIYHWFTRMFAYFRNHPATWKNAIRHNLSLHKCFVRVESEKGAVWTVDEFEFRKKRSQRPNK
- Assay Name: PD-seq (MBP pull-down with sequencing); 20 mM Tris-HCl pH 7.5, 100 mM NaCl, 1.5 mM MgCl2, 0.4 uM protein, 0.1 uM dsDNA library, 30 min, room temperature, amylose pull-down; high values mean tight binding
- Condition Set: protein: recombinant; tags: His6-MBP; chain copies: 2; dsDNA, one strand shown
Whole data set: some 16,000 sequences, median “rpm ratio (pull-down/input)” near 0.5, cut for the highest 2% near 5.5. The list comes from a sample in which the highest values are over-represented; it also holds close analogues and randomly drawn sequences.
Each item that follows carries a reported binding signal.

As a guide, the following entries are already answered.
GATGATTGTTCTCCCAGCTGATGAATTTTTTTTTTCGAGTAAACAAATTTTCCTAATCTTTCTGTTCAAGCGCCATCTAC; 0.217 RPM ratio (pull-down/input)
GATGATTGTTCTCCCAGCTGATGAATTGCCATCTTCGAGTAAACAAATTTTCCTAATCTTTCTGTTCAAGCGCCATCTAC; 1.07 RPM ratio (pull-down/input)
GATGATTGTTCTCCCAGCTGATGAATTGCATTATTCGAGTAAACAAATTTTCCTAATCTTTCTGTTCAAGCGCCATCTAC; 3.3 RPM ratio (pull-down/input)
GATGATTGTTCTCCCAGCTGATGAATTATTCCATTCGAGTAAACAAATTTTCCTAATCTTTCTGTTCAAGCGCCATCTAC; 0.434 RPM ratio (pull-down/input)
GATGATTGTTCTCCCAGCTGATGAATTGAATCCTTCGAGTAAACAAATTTTCCTAATCTTTCTGTTCAAGCGCCATCTAC; 0.33 RPM ratio (pull-down/input)

What the record says about `GATGATTGTTCTCCCAGCTGATGAATTTGCAGCTTCGAGTAAACAAATTTTCCTAATCTTTCTGTTCAAGCGCCATCTAC` : binding signal is 1.22 RPM ratio (pull-down/input)

Summary for this sequence, `GATGATTGTTCTCCCAGCTGATGAATTGCATTCGTCGAGTAAACAAATTTTCCTAATCTTTCTGTTCAAGCGCCATCTAC` : binding signal is 3.88 RPM ratio (pull-down/input)

Values were extracted from paper PMC12820563.
